System: rhinovirus type 2
Method notes: Inhibitory activity of viral RNA production (RT-PCR with rhinovirus-specific primer)
Format: cell-based
Protocol conditions: HeLa cells infected with rhinovirus type 2; RNA isolated after 48 hours; FIG. 8-B
Measurement label: Amount of RNA in virus

# Molecule, Measured target, Meas value
measured = [
    ("Nc1ncnc2c1ncn2[C@@H]1O[C@H](COP(=O)(O)OP(=O)(O)OP(=O)(O)O)[C@@H](O)[C@H]1O [ATP, adenosine triphosphate, reference compound]", "rhinovirus type 2", "not reduced"),
    ("C[N+](C)(C)CCOP(=O)(O)OP(=O)([O-])OC[C@H]1O[C@@H](n2ccc(N)nc2=O)[C@H](O)[C@@H]1O [CDP-choline]", "rhinovirus type 2", "not reduced"),
    ("Nc1ccn([C@@H]2O[C@H](COP(=O)(O)OP(=O)(O)OP(=O)(O)O)[C@@H](O)[C@H]2O)c(=O)n1 [Cytidine triphosphate, cytidine triphosphate]", "rhinovirus type 2", "not reduced"),
]
